Please provide measured IC50 for the entries that follow.
Protein target, amino acids: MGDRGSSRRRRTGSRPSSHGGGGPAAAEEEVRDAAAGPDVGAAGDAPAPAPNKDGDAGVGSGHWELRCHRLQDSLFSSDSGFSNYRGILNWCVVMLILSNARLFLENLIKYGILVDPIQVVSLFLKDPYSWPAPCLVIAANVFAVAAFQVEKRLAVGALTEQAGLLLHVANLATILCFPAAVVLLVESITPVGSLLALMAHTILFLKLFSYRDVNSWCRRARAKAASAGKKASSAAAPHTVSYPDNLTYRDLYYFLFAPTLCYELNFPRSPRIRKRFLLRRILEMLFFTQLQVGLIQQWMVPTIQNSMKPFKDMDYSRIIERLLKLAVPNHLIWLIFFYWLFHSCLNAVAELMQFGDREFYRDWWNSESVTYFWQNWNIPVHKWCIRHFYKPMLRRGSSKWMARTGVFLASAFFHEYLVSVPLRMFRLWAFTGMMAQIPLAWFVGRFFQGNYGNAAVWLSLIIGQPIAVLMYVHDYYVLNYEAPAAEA

# count of solved cases: 4
Return value of IC50 for input COc1ccc(C2=Nc3c(N)ncnc3OC2)cc1 [Example 1-12] , no commentary.
> 100 nM

Return value of IC50 for input CC1(C)Oc2ncnc(N)c2N=C1c1ccc([C@H]2CC[C@H](CC(=O)N3CCC[C@H]3CO)CC2)cc1 [Example 2-100] , no commentary.
10 to 100 nM

Return value of IC50 for input CC1(C)Oc2ncnc(N)c2NC1(C)c1ccc(C2CCCCC2)cc1 (stereo not shown) [Example 2-75] , no commentary.
> 100 nM

Return value of IC50 for input CCCNC(=O)C[C@H]1CC[C@H](c2ccc(C3=Nc4c(N)ncnc4OC3(C)C)cc2)CC1 [Example 2-102] , no commentary.
10 to 100 nM

Give me IC50 for each of these molecules, listed below.
1. CN(CCO)C(=O)CC[C@H]1CC[C@H](c2ccc(C3=Nc4c(N)ncnc4OC3(C)C)cc2)CC1 [Example 2-179]
2. CC1(C)Oc2ncnc(N)c2N=C1c1ccc([C@H]2CC[C@H](C(=O)N3CCOCC3)CC2)cc1 [Example 2-239]

10 to 100 nM
> 100 nM

Return value of IC50 for input CC1(C)Oc2nc(C(F)(F)F)nc(N)c2N=C1c1ccc([C@H]2CC[C@H](CC(=O)O)CC2)c(Cl)c1 [Example 6-20] , no commentary.
< 10 nM

These entries and their values trace back to patent US7244727B2.
